measurement.description: AUC (0 to infinity) in Sprague-Dawley rat at 10 mg/kg, po
Assay type: ADME, organism-based
Parameters: time infinity, route oral, dose 10 mg/kg
test.settings: in vivo
parameter.measured: AUC(0-inf) (µg·h/mL)
Use µg·h/mL as the unit, but write only the number.

Input: Reported AUC(0-inf) for CCC(C)(C)C(=O)O : what is it?
Output: 5.52

###

measurement.description: AUC (0 to infinity) in Sprague-Dawley rat at 200 mg/kg, po
Type: ADME, organism-based
Parameters: route oral, time infinity, dose 200 mg/kg
test.settings: in vivo
parameter.measured: AUC(0-inf) (µg·h/mL)
Use µg·h/mL as the unit, but write only the number.

Input: Reported AUC(0-inf) for CCC(C)(C)C(=O)O : what is it?
Output: 244

###

measurement.description: Ratio of drug level in liver to plasma in Sprague-Dawley rat at 10 mg/kg, po measured at 1 hr post dose
Assay type: ADME, organism-based
test.settings: liver (relative to plasma)
parameter.measured: Kp at 1 h
API note: the answer field is a bare number with no unit suffix.

Input: Reported Kp at 1 h for CCC(C)(C)C(=O)O : what is it?
Output: 4.6

###

measurement.description: Half life in CD1 mouse at 30 mg/kg, iv
Assay type: ADME, organism-based
test.settings: in vivo
parameter.measured: half-life (min)
Use min as the unit, but write only the number.

Input: Reported half-life for CCC(C)(C)C(=O)O : what is it?
Output: 49.9

###

measurement.description: Drug metabolism in cynomolgus monkey hepatocytes assessed as formation of 2,2-dimethylbutanoic acid-CoA incubated for 1 hrs by MS/MS analysis
Assay type: ADME, cell-based
test.settings: Macaca fascicularis, Hepatocyte
parameter.measured: EC50 (µM)
Use µM as the unit, but write only the number.

Input: Reported EC50 for CCC(C)(C)C(=O)O [DIMEBUTIC ACID] : what is it?
Output: 46.2

###

measurement.description: Oral bioavailability in Sprague-Dawley rat at 10 mg/kg
Assay type: ADME, organism-based
test.settings: in vivo
parameter.measured: bioavailability (%)
Use % as the unit, but write only the number.

Input: Reported bioavailability for CCC(C)(C)C(=O)O [DIMEBUTIC ACID] : what is it?
Output: 57.1

###

measurement.description: Apparent permeability across apical to basal side in human MDCK2-MDR1
Type: ADME, Canis lupus familiaris
test.settings: dog, MDCK-MDR1
parameter.measured: Papp A→B

Input: Reported Papp A→B for CCC(C)(C)C(=O)O [DIMEBUTIC ACID] : what is it?
Output: > 20 ×10⁻⁶ cm/s

###

measurement.description: AUC (0 to infinity) in Sprague-Dawley rat at 10 mg/kg, iv
Assay type: ADME, organism-based
Parameters: route intravenous, time infinity, dose 10 mg/kg
test.settings: in vivo
parameter.measured: AUC(0-inf) (ng·h/mL)
Use ng·h/mL as the unit, but write only the number.

Input: Reported AUC(0-inf) for CCC(C)(C)C(=O)O [DIMEBUTIC ACID] : what is it?
Output: 9670

###

tested.target: OATP1B1 (Homo sapiens)
Sequence (Q9Y6L6 whole entry): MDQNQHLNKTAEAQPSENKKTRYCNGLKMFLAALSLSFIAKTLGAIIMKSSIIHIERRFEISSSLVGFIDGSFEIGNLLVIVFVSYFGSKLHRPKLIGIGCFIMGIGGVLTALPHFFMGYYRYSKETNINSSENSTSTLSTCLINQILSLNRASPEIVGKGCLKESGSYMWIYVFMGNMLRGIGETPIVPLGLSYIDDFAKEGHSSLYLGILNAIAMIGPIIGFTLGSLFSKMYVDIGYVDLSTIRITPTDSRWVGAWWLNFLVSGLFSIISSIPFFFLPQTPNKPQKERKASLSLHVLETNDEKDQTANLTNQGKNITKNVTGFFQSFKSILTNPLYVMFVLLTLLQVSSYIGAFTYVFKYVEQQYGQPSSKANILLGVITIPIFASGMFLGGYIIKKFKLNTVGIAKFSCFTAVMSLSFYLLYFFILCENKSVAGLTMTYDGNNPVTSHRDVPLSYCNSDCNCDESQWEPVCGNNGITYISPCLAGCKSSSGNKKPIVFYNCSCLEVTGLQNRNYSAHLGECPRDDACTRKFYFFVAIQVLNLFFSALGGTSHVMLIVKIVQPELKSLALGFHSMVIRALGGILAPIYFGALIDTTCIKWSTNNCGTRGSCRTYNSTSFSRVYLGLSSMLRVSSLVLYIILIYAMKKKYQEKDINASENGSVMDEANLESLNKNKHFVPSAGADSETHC
measurement.description: Inhibition of human OATP1B1 assessed as reduction in OATP1B1- mediated E217betaG transport at 14900 uM relative to control
test.settings: not told, probe E217betaG
parameter.measured: inhibition at 14900 µM (%)
Use % as the unit, but write only the number.

Input: Reported inhibition at 14900 µM for CCC(C)(C)C(=O)O : what is it?
Output: 25.9

###

measurement.description: Oral bioavailability in CD1 mouse at 100 mg/kg
Type: ADME, organism-based
test.settings: in vivo
parameter.measured: bioavailability (%)
Use % as the unit, but write only the number.

Input: Reported bioavailability for CCC(C)(C)C(=O)O [DIMEBUTIC ACID] : what is it?
Output: 93.3

###

measurement.description: Half life in Sprague-Dawley rat at 200 mg/kg, po
Format: ADME, organism-based
test.settings: in vivo
parameter.measured: half-life (h)
Use h as the unit, but write only the number.

Input: Reported half-life for CCC(C)(C)C(=O)O : what is it?
Output: 2.73

###

measurement.description: Clearance in CD1 mouse at 30 mg/kg, iv
Assay type: ADME, organism-based
test.settings: in vivo
parameter.measured: clearance
Give your result as the value with the unit written after it.

Input: Reported clearance for CCC(C)(C)C(=O)O : what is it?
Output: 7.28 mL/min/kg

###

measurement.description: Reduction of propionyl carnitine in human hepatocytes derived from propionic acidemia patient pretreated for 30 mins followed by 13C-isoleucine addition and measured after 1 hr by MS/MS analysis
Format: functional, cell-based
test.settings: hepatocyte
parameter.measured: EC50 (µM)
Use µM as the unit, but write only the number.

Input: Reported EC50 for CCC(C)(C)C(=O)O : what is it?
Output: 2.6

###

measurement.description: Cmax in CD1 mouse at 30 mg/kg, po
Type: ADME, organism-based
Set-up: route oral, dose 30 mg/kg
test.settings: in vivo
parameter.measured: Cmax (ng/mL)
Use ng/mL as the unit, but write only the number.

Input: Reported Cmax for CCC(C)(C)C(=O)O : what is it?
Output: 33700

###

measurement.description: Ratio of drug level in erythrocyte to plasma in human
Assay type: ADME
test.settings: erythrocytes and plasma
parameter.measured: Kp

Input: Reported Kp for CCC(C)(C)C(=O)O : what is it?
Output: 0.343

###

measurement.description: Reduction of CoASH in human hepatocytes derived from propionic acidemia patient pretreated for 30 mins followed by 13C-isoleucine addition and measured after 1 hr by MS/MS analysis
Format: functional, cell-based
test.settings: hepatocyte
parameter.measured: pEC50
Keep it numeric: pEC50 is minus log10 of the concentration in mol/L.

Input: Reported pEC50 for CCC(C)(C)C(=O)O : what is it?
Output: 4.94

###

measurement.description: Half life in Sprague-Dawley rat at 50 mg/kg, po
Assay type: ADME, organism-based
test.settings: in vivo
parameter.measured: half-life
Give your result as the value with the unit written after it.

Input: Reported half-life for CCC(C)(C)C(=O)O : what is it?
Output: 3.27 h

###

measurement.description: Volume of distribution of CD1 mouse at 30 mg/kg, iv
Type: ADME, organism-based
test.settings: in vivo
parameter.measured: Vd
Give your result as the value with the unit written after it.

Input: Reported Vd for CCC(C)(C)C(=O)O : what is it?
Output: 0.469 L/kg

###

measurement.description: Cmax in Sprague-Dawley rat at 50 mg/kg, po
Type: ADME, organism-based
Design: route oral, dose 50 mg/kg
test.settings: in vivo
parameter.measured: Cmax (ng/mL)
Use ng/mL as the unit, but write only the number.

Input: Reported Cmax for CCC(C)(C)C(=O)O : what is it?
Output: 21900

###

measurement.description: Half life in CD1 mouse at 30 mg/kg, po
Type: ADME, organism-based
test.settings: in vivo
parameter.measured: half-life (min)
Use min as the unit, but write only the number.

Input: Reported half-life for CCC(C)(C)C(=O)O : what is it?
Output: 35.4

###

tested.target: OATP1B3 (Homo sapiens)
Sequence (Q9NPD5 whole entry): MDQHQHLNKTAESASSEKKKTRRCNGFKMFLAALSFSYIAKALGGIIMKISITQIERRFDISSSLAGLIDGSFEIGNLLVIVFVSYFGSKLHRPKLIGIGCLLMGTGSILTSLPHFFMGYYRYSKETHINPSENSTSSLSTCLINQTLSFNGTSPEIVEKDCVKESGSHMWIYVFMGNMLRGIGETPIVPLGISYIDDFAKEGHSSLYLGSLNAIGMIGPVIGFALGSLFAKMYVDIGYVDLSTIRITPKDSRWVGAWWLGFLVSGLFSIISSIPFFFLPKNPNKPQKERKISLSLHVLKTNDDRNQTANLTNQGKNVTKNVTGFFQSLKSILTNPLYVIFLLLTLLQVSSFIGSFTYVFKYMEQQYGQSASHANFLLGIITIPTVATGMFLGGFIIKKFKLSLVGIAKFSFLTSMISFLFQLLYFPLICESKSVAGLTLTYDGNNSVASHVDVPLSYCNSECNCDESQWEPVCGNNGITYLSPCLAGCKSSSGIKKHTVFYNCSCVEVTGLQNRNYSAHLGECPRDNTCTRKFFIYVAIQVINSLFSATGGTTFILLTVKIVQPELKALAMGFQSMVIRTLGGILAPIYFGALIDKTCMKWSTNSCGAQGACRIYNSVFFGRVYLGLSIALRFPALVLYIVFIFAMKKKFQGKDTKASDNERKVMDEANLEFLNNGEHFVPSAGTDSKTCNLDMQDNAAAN
measurement.description: Inhibition of human OATP1B3 assessed as reduction in OATP1B3-mediated E217betaG transport at 14900 uM relative to control
test.settings: not told, probe E217betaG
parameter.measured: inhibition at 14900 µM
Give your result as the value with the unit written after it.

Input: Reported inhibition at 14900 µM for CCC(C)(C)C(=O)O : what is it?
Output: 31.5%
